- Test system: windgrass (Apera spica-venti)
- ASSAY: Test C postemergence greenhouse test, plant response rating 0-100
- Format: in vivo
- TEST_CONTEXT: 125 g ai/ha
ASSAY_METRIC: Plant response rating (0 to 100), Windgrass
Numbers only.

# example entries with known answers
CC(C)n1cc(C(=O)c2ccccc2)c(-c2cc(Cl)cc(Cl)c2)n1 [Compound 44]    0
CCn1cc(C(=O)c2cccs2)c(-c2cc(Cl)cc(Cl)c2)n1 [Compound 18]    0
Fc1cccc(NN=C(c2ccccc2)c2c[nH]nc2-c2cc(Cl)cc(Cl)c2)c1 [Compound 58]    0
CCn1cc(C(=O)c2ccccc2)c(-c2cc(Br)cc(Br)c2)n1 [Compound 38]    0
Cn1cc(C(=NN2CCCC2)c2ccccc2)c(-c2cc(Cl)c(Cl)c(Cl)c2)n1 [Compound 25]    0

Would you kindly look at the next entry?
May I ask what Plant response rating (0 to 100), Windgrass has been recorded for CCn1cc(C(=NN2CCCC2)c2ccccc2)c(-c2cc(Cl)cc(Cl)c2)n1 [Compound 37] ?
0

====

- System: oilseed rape (Brassica napus)
- ASSAY: Test C pre-/postemergence greenhouse test, plant response rating 0-100
- Format: in vivo
- TEST_CONTEXT: Postemergence, 62 g ai/ha
- Source text: […]
ASSAY_METRIC: Plant response rating (0 to 100), Oilseed Rape
Numbers only.

# example entries with known answers
O=C(c1ccccc1)c1cn(CO)nc1-c1cc(Cl)cc(Cl)c1    60
CCOC(OCC)(c1ccccc1)c1c[nH]nc1-c1cc(Cl)cc(Cl)c1    80
O=Cn1cc(C(=O)c2ccccc2)c(-c2cc(Cl)cc(Cl)c2)n1    80
O=C(c1ccccc1)c1cn(S(=O)(=O)C(F)(F)F)nc1-c1cc(Cl)cc(Cl)c1    70

Would you kindly look at the next entry?
May I ask what Plant response rating (0 to 100), Oilseed Rape has been recorded for CCOC(OCC)(c1cccs1)c1c[nH]nc1-c1cc(Cl)cc(Cl)c1 ?
45

====

- Tested on: velvetleaf (Abutilon theophrasti)
- ASSAY: Test C pre-/postemergence greenhouse test, plant response rating 0-100
- Format: in vivo
- TEST_CONTEXT: Abutilon theophrasti, post-emergence; Postemergence, 250 g ai/ha; scale 0 to 100
ASSAY_METRIC: pest or weed control at 250 g/ha (%)
Give bare numbers, in %.

Dear colleague, could you please provide pest or weed control at 250 g/ha for the compounds listed below?
1. CCOC(OCC)(c1ccccc1)c1c[nH]nc1-c1cc(Cl)cc(Cl)c1 [Compound 14]
2. Cn1cc(C(=O)c2ccccc2)c(-c2cc(Cl)cc(Cl)c2)n1 [Compound 54]
3. COC(OC)(c1ccccc1)c1c[nH]nc1-c1cc(Cl)cc(Cl)c1 [Compound 13]
4. CCCn1cc(C(=O)c2ccccc2)c(-c2cc(Cl)cc(Cl)c2)n1 [Compound 61]
5. O=C(c1ccccc1)c1cn(CO)nc1-c1cc(Cl)cc(Cl)c1 [Compound 15]

1. 80
2. 100
3. 85
4. 75
5. 90

====

- System: wild poinsettia (Euphorbia heterophylla)
- ASSAY: Test E pre-/postemergence greenhouse test, plant response rating 0-100
- Type: in vivo
- TEST_CONTEXT: Postemergence, 125 g ai/ha; scale 0 to 100
I'd be grateful if you could share measured Plant response rating, Poinsettia, Wild for these entries.
One number for each entry.

O=Cn1cc(C(=O)c2ccccc2)c(-c2cc(Cl)cc(Cl)c2)n1 [Compound 28]    0
O=C(c1ccccc1)c1cn(S(=O)(=O)C(F)(F)F)nc1-c1cc(Cl)cc(Cl)c1 [Compound 2]    0
Cn1cc(C(=O)c2cccs2)c(-c2cc(Cl)cc(Cl)c2)n1 [Compound 17]    0
ON=C(c1ccccc1)c1c[nH]nc1-c1cc(Cl)cc(Cl)c1 [Compound 50]    0

Provide value of Plant response rating, Poinsettia, Wild for this record tested with wild poinsettia (Euphorbia heterophylla): Fc1ccc(NN=C(c2ccccc2)c2c[nH]nc2-c2cc(Cl)cc(Cl)c2)cc1 [Compound 35]
0

====

- System: pigweed (Amaranthus retroflexus)
- ASSAY: Test A pre-/postemergence greenhouse herbicide test, visual injury rating 0-100
- Format: in vivo
- TEST_CONTEXT: Postemergence, 500 g ai/ha
I'd be grateful if you could share measured Plant response rating (0 to 100 scale), Pigweed for these entries.

# example entries with known answers
O=C(c1ccccc1)c1cn(S(=O)(=O)CCl)nc1-c1cc(Cl)cc(Cl)c1 [Compound 1]    90
CON=C(c1cccs1)c1c[nH]nc1-c1cc(Cl)cc(Cl)c1 [Compound 32]    60
CCOC(OCC)(c1cccs1)c1c[nH]nc1-c1cc(Cl)cc(Cl)c1 [Compound 27]    100

May I ask what Plant response rating (0 to 100 scale), Pigweed has been recorded for FC(F)(F)Cn1cc(C(=NNc2ccccc2)c2ccccc2)c(-c2cc(Cl)cc(Cl)c2)n1 [Compound 34] ?
20

====

- Test system: velvetleaf (Abutilon theophrasti)
- ASSAY: Test E pre-/postemergence greenhouse test, plant response rating 0-100
- Type: in vivo
- TEST_CONTEXT: Preemergence, 250 g ai/ha, scale 0 to 100
ASSAY_METRIC: Velvetleaf plant response rating
Numbers only.

# example entries with known answers
Cn1cc(C(=O)c2ccccc2)c(-c2cc(Cl)cc(Cl)c2)n1    78
O=C(c1ccccc1)c1cn(CO)nc1-c1cc(Cl)cc(Cl)c1    65
CCn1cc(C(=O)c2ccccc2)c(-c2cc(Cl)cc(Cl)c2)n1    80
O=C(c1ccccc1)c1cn(S(=O)(=O)CC(F)(F)F)nc1-c1cc(Cl)cc(Cl)c1    40

Provide value of Velvetleaf plant response rating for this record tested with velvetleaf (Abutilon theophrasti): O=C(c1ccccc1)c1cn(S(=O)(=O)C(F)(F)F)nc1-c1cc(Cl)cc(Cl)c1
0

====

- Tested on: deadnettle (henbit deadnettle, Lamium amplexicaule)
- ASSAY: Test C postemergence greenhouse test, plant response rating 0-100
- Type: in vivo
- TEST_CONTEXT: 250 g ai/ha, scale 0 to 100
ASSAY_METRIC: Plant response rating, Deadnettle
Give bare numbers.

Dear colleague, could you please provide Plant response rating, Deadnettle for the molecules listed below?
1. CCn1cc(C(=O)c2ccccc2)c(-c2cc(Br)cc(Br)c2)n1
2. Clc1cc(Cl)cc(-c2n[nH]cc2C(=NNc2ccccc2Cl)c2ccccc2)c1
3. C#CCn1cc(C(=O)c2ccccc2)c(-c2cc(Cl)cc(Cl)c2)n1
4. Clc1cc(Cl)cc(-c2n[nH]cc2C(=NN2CCCC2)c2ccccc2)c1
5. Cn1cc(C(=NN2CCCC2)c2ccccc2)c(-c2cc(Cl)c(Cl)c(Cl)c2)n1
6. Fc1ccc(NN=C(c2ccccc2)c2c[nH]nc2-c2cc(Cl)cc(Cl)c2)cc1

[5, 0, 0, 0, 0, 0]

====

I'd be grateful if you could share measured pest or weed control at 62 g/ha for these entries.
- Tested on: arrowleaf sida (Sida rhombifolia)
- ASSAY: Test E pre-/postemergence greenhouse test, plant response rating 0-100
- Type: in vivo
- TEST_CONTEXT: Sida rhombifolia, post-emergence; Postemergence, 62 g ai/ha; scale 0 to 100
Give bare numbers, in %.

COCC(=O)n1cc(C(=O)c2ccccc2)c(-c2cc(Cl)cc(Cl)c2)n1 [Compound 16]    98

Dear colleague, could you please provide pest or weed control at 62 g/ha for the compounds listed below?
1. CCOC(OCC)(c1ccccc1)c1c[nH]nc1-c1cc(Cl)cc(Cl)c1 [Compound 14]
2. Clc1cc(Cl)cc(-c2n[nH]cc2C(=NN2CCCC2)c2ccccc2)c1 [Compound 30]
3. CCn1cc(C(=O)c2ccccc2)c(-c2cc(Cl)cc(Cl)c2)n1 [Compound 31]

1: 90; 2: 70; 3: 80

====

- System: goosegrass (Eleusine indica)
- ASSAY: Test C postemergence greenhouse test, plant response rating 0-100
- Assay type: in vivo
- TEST_CONTEXT: 125 g ai/ha
I'd be grateful if you could share measured Plant response rating (0 to 100), Goosegrass for these entries.

Cn1cc(C(=O)c2ccccc2)c(-c2cc(Cl)cc(Cl)c2)n1 [Compound 54]    0
CCn1cc(C(=O)c2ccccc2)c(-c2cc(Cl)cc(Cl)c2)n1 [Compound 31]    0
Fc1ccccc1NN=C(c1ccccc1)c1c[nH]nc1-c1cc(Cl)cc(Cl)c1 [Compound 57]    0
Cn1cc(C(=O)c2ccccc2)c(-c2cc(Br)cc(Br)c2)n1 [Compound 53]    5

Would you kindly look at the next entry?
Provide value of Plant response rating (0 to 100), Goosegrass for this record tested with goosegrass (Eleusine indica): CCn1cc(C(=O)c2cccs2)c(-c2cc(Cl)cc(Cl)c2)n1 [Compound 18]
0

====

- Test system: wheat (Triticum aestivum)
- ASSAY: Test A pre-/postemergence greenhouse herbicide test, visual injury rating 0-100
- Assay type: in vivo
- TEST_CONTEXT: Preemergence, 125 g ai/ha
ASSAY_METRIC: Wheat plant response rating (0 = no effect, 100 = complete control)
Answers are plain numbers.

# example entries with known answers
CCOC(OCC)(c1cccs1)c1c[nH]nc1-c1cc(Cl)cc(Cl)c1    0
O=C(c1ccccc1)c1cn(S(=O)(=O)CC(F)(F)F)nc1-c1cc(Cl)cc(Cl)c1    0
Cn1cc(C(=O)c2ccccc2)c(-c2cc(Cl)cc(Cl)c2)n1    0
C=CCn1cc(C(=O)c2cccnc2)c(-c2cc(Cl)cc(Cl)c2)n1    0

Dear colleague, could you please provide Wheat plant response rating (0 = no effect, 100 = complete control) for the molecules listed below?
1. O=Cn1cc(C(=O)c2ccccc2)c(-c2cc(Cl)cc(Cl)c2)n1
2. CCCn1cc(C(=O)c2ccccc2)c(-c2cc(Cl)cc(Cl)c2)n1
3. O=C(c1ccccc1)c1cn(CO)nc1-c1cc(Cl)cc(Cl)c1
4. O=C(c1ccccc1)c1cn(S(=O)(=O)CCl)nc1-c1cc(Cl)cc(Cl)c1
5. C=CCn1cc(C(=O)c2ccccc2)c(-c2cc(Cl)cc(Cl)c2)n1

1: 0; 2: 0; 3: 0; 4: 0; 5: 0
